Collected literature values of IC50 measured for Receptor-type tyrosine-protein kinase FLT3 (Homo sapiens, UniProt P36888).

Example entries and their recorded answers appear below.
>>> measured("O=c1c2cc(F)ccc2sc2c(NCCCO)nc3ccccc3c12")
"> 1000 nM"
>>> measured("CCc1nc2c(N)ncc(-c3cnn(C4CCN(C5CCN(CCO)CC5)CC4)c3)c2nc1NC1CCOCC1")
"≤ 10 nM"

Input: Please state recorded IC50 (tested on Receptor-type tyrosine-protein kinase FLT3 (Homo sapiens, UniProt P36888)) of `Cc1[nH]c(/C=C2\C(=O)Nc3cc(NC(=O)c4cccn(C)c4=O)ccc32)c(C)c1C(=O)O`
Output: 4.2 nM

Input: Please state recorded IC50 (tested on Receptor-type tyrosine-protein kinase FLT3 (Homo sapiens, UniProt P36888)) of `O=c1c2cc(F)ccc2sc2c(OCCO)nc3ccccc3c12`
Output: > 1000 nM

Input: Please state recorded IC50 (tested on Receptor-type tyrosine-protein kinase FLT3 (Homo sapiens, UniProt P36888)) of `O=c1c2cc(F)ccc2sc2c(-n3cccc3)nc3ccccc3c12`
Output: > 1000 nM

Input: Please state recorded IC50 (tested on Receptor-type tyrosine-protein kinase FLT3 (Homo sapiens, UniProt P36888)) of `COC[C@H](C)Nc1ncc2c(-c3ccc([C@H](C)N4CCOCC4)cc3)cc([C@H]3CC[C@H](O)CC3)n2n1`
Output: ≤ 100 nM

Input: Please state recorded IC50 (tested on Receptor-type tyrosine-protein kinase FLT3 (Homo sapiens, UniProt P36888)) of `C[C@H](Nc1ncc2c(-c3cnn(C(C)(C)C(=O)N4CCOCC4)c3)cc([C@H]3CC[C@H](O)CC3)n2n1)C(F)(F)F`
Output: 1000 to 10000 nM

Input: Please state recorded IC50 (tested on Receptor-type tyrosine-protein kinase FLT3 (Homo sapiens, UniProt P36888)) of CCc1nc2c(N)ncc(-c3ccc(N4CCC(N5CCN(C)CC5)CC4)c(OC)c3)c2nc1NC1CCOC1 (stereo not drawn)
Output: ≤ 10 nM

Input: Please state recorded IC50 (tested on Receptor-type tyrosine-protein kinase FLT3 (Homo sapiens, UniProt P36888)) of `CCCCC[C@H](C)Nc1ncc2c(-c3ccc(S(=O)(=O)N4CCOCC4)cc3)cc([C@H]3CC[C@@H](O)CC3)n2n1`
Output: 100 to 1000 nM

Input: Please state recorded IC50 (tested on Receptor-type tyrosine-protein kinase FLT3 (Homo sapiens, UniProt P36888)) of `CC[C@@H](C)Nc1ncc2c(OC3CC(C)(C)N(C)C(C)(C)C3)ncc([C@H]3CC[C@H](O)CC3)c2n1`
Output: 100 to 1000 nM

Input: Please state recorded IC50 (tested on Receptor-type tyrosine-protein kinase FLT3 (Homo sapiens, UniProt P36888)) of `CCc1nc2c(N)ncc(-c3cnn(C(C)C)c3)c2nc1N[C@@H]1CC[C@H](O)C1`
Output: ≤ 10 nM

Input: Please state recorded IC50 (tested on Receptor-type tyrosine-protein kinase FLT3 (Homo sapiens, UniProt P36888)) of CCCC(C)Nc1ncc2c(OC3CCN(S(C)(=O)=O)CC3)ncc([C@H]3CC[C@H](O)CC3)c2n1 (stereo partly drawn)
Output: 1000 to 10000 nM

Input: Please state recorded IC50 (tested on Receptor-type tyrosine-protein kinase FLT3 (Homo sapiens, UniProt P36888)) of `C[C@@H](CC(F)(F)F)Nc1ncc2c(OC3CCN(S(C)(=O)=O)CC3)ncc([C@H]3CC[C@H](O)CC3)c2n1`
Output: 1000 to 10000 nM

Input: Please state recorded IC50 (tested on Receptor-type tyrosine-protein kinase FLT3 (Homo sapiens, UniProt P36888)) of COCC(C)Nc1ncc2c(-c3ccc(C4(N5CCN(C)CC5)CC4)cc3)cc(C3CCC(O)CC3)n2n1 (stereo not drawn)
Output: 100 to 1000 nM

Input: Please state recorded IC50 (tested on Receptor-type tyrosine-protein kinase FLT3 (Homo sapiens, UniProt P36888)) of `CC[C@H](C)Nc1ncc2c(Cl)ncc([C@H]3CC[C@H](O)CC3)c2n1`
Output: 1000 to 10000 nM

Input: Please state recorded IC50 (tested on Receptor-type tyrosine-protein kinase FLT3 (Homo sapiens, UniProt P36888)) of `COC[C@H](C)Nc1ncc2c(-c3ccc(C(=O)N4CCOCC4)nc3)cc([C@H]3CC[C@H](O)CC3)n2n1`
Output: 1000 to 10000 nM

Input: Please state recorded IC50 (tested on Receptor-type tyrosine-protein kinase FLT3 (Homo sapiens, UniProt P36888)) of COC[C@H](C)Nc1ncc2c(-c3ccnc(NC4CCOC4)c3)cc([C@H]3CC[C@H](O)CC3)n2n1 (stereo partly drawn)
Output: 100 to 1000 nM
